Each recorded value in this set is attributed to the RNAGym collection of RNA variant scans (doi:10.1093/nar/gkz1192).

B1: CPEB3 Ribozyme (parent)
chain: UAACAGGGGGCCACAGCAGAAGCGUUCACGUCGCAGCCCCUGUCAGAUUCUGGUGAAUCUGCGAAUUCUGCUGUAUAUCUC

variants of: B1; experiment: self-cleavage, relative activity (ratio to wild type); higher = more cleavage; in vitro, sequencing
MEASURED_ATTRIBUTE: self-cleavage

| CHANGE | MEASURED_ATTRIBUTE | NUMERIC_READOUT |
| --- | --- | --- |
| C71U U78C | self-cleavage | 0.77 |
| C50U A56U | self-cleavage | 0.82 |
| G9U A45U | self-cleavage | 0.04 |
| U54A C62A | self-cleavage | 0.32 |
| C37U U49C | self-cleavage | 0.37 |
| A35G U72G | self-cleavage | 1.29 |
| U25A G53A | self-cleavage | 0.28 |
| U43G U54C | self-cleavage | 0.45 |
| A13G U43A | self-cleavage | 0.93 |
| C14U G36A | self-cleavage | 0.32 |
| U1C A5C | self-cleavage | 0.82 |
| C12A | self-cleavage | 1.15 |
| G22A A77U | self-cleavage | 0.1 |
| A35G U51A | self-cleavage | 1.32 |
| A28U | self-cleavage | 0.81 |
| A20G U49A | self-cleavage | 0.34 |
| G52U U69C | self-cleavage | 0.73 |
| C34A A56G | self-cleavage | 0.22 |
| U25C U74A | self-cleavage | 0.42 |
| A35U C39U | self-cleavage | 0.49 |
| A13U | self-cleavage | 1.17 |
| A56C C62A | self-cleavage | 0.24 |
